# systemTested: RAD52-mediated ssDNA annealing (Homo sapiens)
# Construct: made in house
# experimentalProtocol: FRET-based RAD52-mediated ssDNA annealing assay
# Assay type: biochemical
# assaySetup: Table 1, read-out: IC50 Annealing Extent
# Source text: These assays utilize two complementary single stranded 28-nucleotide-long substrates, which contain either Cy3 (T-28) or Cy5 (P-28) incorporated into the middle of the respective DNA strand. […] We plotted the final extent of annealing vs the concentration of the compound and calculated an IC50 of annealing inhibition. Annealing of complementary oligonucleotides by RAD52 was monitored under identical conditions as the binding assays described above. […]
Where a name gives a salt, the structure may show the parent alone.
experimentalReadout: IC50 (µM)
Return type: number; implicit unit µM.

The cases that follow already have their IC50 on record.
Task item: Retrieve IC50 measured for O=C(O[C@@H]1Cc2c(O)cc(O)cc2O[C@@H]1c1ccc(O)c(O)c1)c1cc(O)c(O)c(O)c1 [Compound 5, (−)-Epicatechin gallate] and print it.
Reply: 20

Task item: Retrieve IC50 measured for O=c1c(O)c(-c2ccc(O)c(O)c2)oc2c(O)c(O)cc(O)c12 [Compound 19, Gossypetin] and print it.
Reply: 6

Task item: Retrieve IC50 measured for C=C1c2cccc(O)c2C(=O)C2=C(O)[C@]3(O)C(=O)C(C(N)=O)=C(O)[C@@H](N(C)C)[C@@H]3[C@@H](O)[C@H]12 [Compound 3, Methacycline Hydrochloride, reference compound] and print it.
Reply: 3.8

Alright, here's another molecule for you.
Task item: Retrieve IC50 measured for O=C1c2ccc(O)c(O)c2C(=O)c2c(O)ccc(O)c21 [Compound 15, Quinalizarin] and print it.
Reply: 5.6

---

We begin with a simple list: items and their reported FRET value at saturation.
# systemTested: RAD52-ssDNA interaction (Homo sapiens)
# Construct: made in house
# Sequence (P43351 1-418): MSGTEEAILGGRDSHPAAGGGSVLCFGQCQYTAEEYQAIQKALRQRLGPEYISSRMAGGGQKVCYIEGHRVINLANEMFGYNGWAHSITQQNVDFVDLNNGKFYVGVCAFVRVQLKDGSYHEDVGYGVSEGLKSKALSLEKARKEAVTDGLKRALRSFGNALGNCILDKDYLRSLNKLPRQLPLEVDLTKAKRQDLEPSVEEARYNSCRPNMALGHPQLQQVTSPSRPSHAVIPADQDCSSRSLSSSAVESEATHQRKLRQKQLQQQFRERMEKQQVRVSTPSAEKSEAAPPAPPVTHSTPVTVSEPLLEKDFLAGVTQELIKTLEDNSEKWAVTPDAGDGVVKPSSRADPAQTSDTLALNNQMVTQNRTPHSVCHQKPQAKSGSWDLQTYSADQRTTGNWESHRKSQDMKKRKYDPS
# experimentalProtocol: FRET-based ssDNA binding and wrapping assay (RAD52-Cy3-dT30-Cy5 complex)
# assaySetup: Table 2
The response must contain the number and no unit.

The cases that follow already have their FRET value at saturation on record.
Task item: Retrieve FRET value at saturation measured for COc1ccc(C(=O)Nc2ccccc2C(=O)NC(C(=O)Nc2ccccc2)C(C)C)cc1 (stereo not drawn) [Compound R32] and print it.
Reply: 0.45

Task item: Retrieve FRET value at saturation measured for CC1(C)COC(O)(C(F)(F)F)CC1=O (stereo not drawn) [Compound R22] and print it.
Reply: 0.49

Task item: Retrieve FRET value at saturation measured for COc1cc(/C=N/NC(=O)CCC(C)O)ccc1O (stereo not drawn) [Compound R33] and print it.
Reply: 0.56

Task item: Retrieve FRET value at saturation measured for COc1cc(C2C(C(=O)OCC3CCCO3)=C(C)NC3=C2C(=O)CC(C)(C)C3)ccc1O (stereo not drawn) [Compound R30] and print it.
Reply: 0.59

Task item: Retrieve FRET value at saturation measured for O/N=C1/CC(O)(C(F)(F)F)Oc2ccccc21 (stereo not drawn) [Compound R21] and print it.
Reply: 0.483

---
Task item: Retrieve FRET value at saturation measured for c1ccc(CSc2nnc3c(n2)OC(c2ccc4c(c2)OCO4)Nc2ccccc2-3)cc1 (stereo not drawn) [Compound R25] and print it.
Reply: 0.45

Task item: Retrieve FRET value at saturation measured for Cc1ccc2c(c1)C(=O)CC(O)(C(F)(F)F)O2 (stereo not drawn) [Compound R20] and print it.
Reply: 0.49

Task item: Retrieve FRET value at saturation measured for CC(O)CC1(O)C(=O)N(C)c2ccccc21 (stereo not drawn) [Compound R23] and print it.
Reply: 0.39

Task item: Retrieve FRET value at saturation measured for CCOc1ccc(C2Nc3ccccc3-c3nnc(SCc4ccccc4)nc3O2)cc1 (stereo not drawn) [Compound R26] and print it.
Reply: 0.46

---

# systemTested: RAD52-ssDNA interaction (Homo sapiens, UniProt P43351)
# Construct: made in house
# Sequence (P43351 1-418): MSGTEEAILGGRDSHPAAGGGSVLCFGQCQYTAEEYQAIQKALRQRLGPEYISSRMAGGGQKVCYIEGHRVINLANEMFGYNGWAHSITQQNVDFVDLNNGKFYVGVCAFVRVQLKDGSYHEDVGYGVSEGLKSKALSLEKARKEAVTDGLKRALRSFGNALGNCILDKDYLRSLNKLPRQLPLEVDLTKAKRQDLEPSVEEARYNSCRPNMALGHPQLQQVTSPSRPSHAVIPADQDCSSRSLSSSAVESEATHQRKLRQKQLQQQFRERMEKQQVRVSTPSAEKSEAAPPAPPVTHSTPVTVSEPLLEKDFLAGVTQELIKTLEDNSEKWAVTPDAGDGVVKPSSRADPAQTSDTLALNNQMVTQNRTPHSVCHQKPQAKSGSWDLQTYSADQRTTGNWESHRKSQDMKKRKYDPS
# experimentalProtocol: FRET-based ssDNA binding and wrapping assay (RAD52-Cy3-dT30-Cy5 complex)
# assaySetup: Table 1; ssDNA; 1 nM Cy3-dT30-Cy5, 8 nM RAD52; read-out: IC50 (DNA binding)
Where a name gives a salt, the structure may show the parent alone.
In plain terms, low IC50, meaning strictly below 800 nM, gives Criterion met, and everything else gives Criterion not met.

Task item: Would you kindly verify if IC50 of O=c1c(O)c(-c2ccc(O)c(O)c2)oc2c(O)c(O)cc(O)c12 is strictly less than 800 nM?
Reply: Criterion not met

Task item: Would you kindly verify if IC50 of O=C(O[C@@H]1Cc2c(O)cc(O)cc2O[C@@H]1c1ccc(O)c(O)c1)c1cc(O)c(O)c(O)c1 [Compound 5, (−)-Epicatechin gallate] is strictly less than 800 nM?
Reply: Criterion met

Task item: Would you kindly verify if IC50 of CC1(C)C(=O)C=C[C@@]2(C)C1=C(O)C(=O)[C@]1(C)[C@@H]2CC[C@@]2(C)[C@H](c3ccoc3)C[C@H]3O[C@]321 is strictly less than 800 nM?
Reply: Criterion not met

---
Task item: Would you kindly verify if IC50 of C=C1c2cccc(O)c2C(=O)C2=C(O)[C@]3(O)C(=O)C(C(N)=O)=C(O)[C@@H](N(C)C)[C@@H]3[C@@H](O)[C@H]12 [Compound 3, Methacycline Hydrochloride, reference compound] is strictly less than 800 nM?
Reply: Criterion not met

Task item: Would you kindly verify if IC50 of Oc1cc(O)c2c(c1)O[C@H](c1ccc(O)c(O)c1)[C@H](O)C2 [Compound 7, (−)-Epicatechin] is strictly less than 800 nM?
Reply: Criterion not met

Task item: Would you kindly verify if IC50 of O=C1c2ccc(O)c(O)c2C(=O)c2c(O)ccc(O)c21 is strictly less than 800 nM?
Reply: Criterion met

---

We begin with a simple list: items and their reported pIC50.
# systemTested: RAD52-ssDNA interaction (Homo sapiens)
# Construct: made in house
# experimentalProtocol: FRET-based ssDNA binding and wrapping assay (RAD52-Cy3-dT30-Cy5 complex)
# assaySetup: Table 2; methods similar to Example 1; read-out: IC50 (DNA binding)
Bear in mind: pIC50 is minus log10 of a mol/L concentration; give just that figure.

Task item: Retrieve pIC50 measured for COc1cc(/C=N/NC(=O)CCC(C)O)ccc1O (stereo not drawn) [Compound R33] and print it.
Reply: 6.07

Task item: Retrieve pIC50 measured for CCOc1ccc(C2Nc3ccccc3-c3nnc(SCc4ccccc4)nc3O2)cc1 (stereo not drawn) [Compound R26] and print it.
Reply: 5.72

Task item: Retrieve pIC50 measured for COc1ccc(C(=O)Nc2ccccc2C(=O)NC(C(=O)Nc2ccccc2)C(C)C)cc1 (stereo not drawn) [Compound R32] and print it.
Reply: 5.90

Task item: Retrieve pIC50 measured for CC1(C)COC(O)(C(F)(F)F)CC1=O (stereo not drawn) [Compound R22] and print it.
Reply: 3.74

---
Task item: Retrieve pIC50 measured for O/N=C1/CC(O)(C(F)(F)F)Oc2ccccc21 (stereo not drawn) [Compound R21] and print it.
Reply: 4.12

Task item: Retrieve pIC50 measured for c1ccc(CSc2nnc3c(n2)OC(c2ccc4c(c2)OCO4)Nc2ccccc2-3)cc1 (stereo not drawn) [Compound R25] and print it.
Reply: 5.80

Task item: Retrieve pIC50 measured for CC(O)CC1(O)C(=O)N(C)c2ccccc21 (stereo not drawn) [Compound R23] and print it.
Reply: 4.08

Task item: Retrieve pIC50 measured for Cc1ccc2c(c1)C(=O)CC(O)(C(F)(F)F)O2 (stereo not drawn) [Compound R20] and print it.
Reply: 6.03

Task item: Retrieve pIC50 measured for COc1cc(C2C(C(=O)OCC3CCCO3)=C(C)NC3=C2C(=O)CC(C)(C)C3)ccc1O (stereo not drawn) [Compound R30] and print it.
Reply: 5.89
